- EXPERIMENTAL SYSTEM: HLA-A*02:01 (Homo sapiens, UniProt P04439, D140Y/D185E/D98H/E176V/E277Q/G131W/G231S/I119V/I121R/I166T/I218V/L300P/L318F/N151K/N90K/P208A/P217A/Q86G/Q94H/R138H/R169H/T345S)
- ASSAY REMARKS: MHC binding assay: UV-ligand exchange with ELISA detection of β2m of stabilized MHC complexes
- RUN CONDITIONS: binding to HLA-A*02:01
ENDPOINT NAME: Peptide exchange (MHC class I binding score, peptide exchange yield)

[
  {
    "SUBSTANCE": "24 (FLMEEVHMI; listed as Homo sapiens) [compound 24]",
    "MEASURED VALUE": "+++ (≥50 = +++)"
  },
  {
    "SUBSTANCE": "52 (ILASFMLTGV; listed as Homo sapiens) [compound 52]",
    "MEASURED VALUE": "++++ (≥75% = ++++)"
  },
  {
    "SUBSTANCE": "96 (NLLKLIAEV; listed as Homo sapiens) [compound 96]",
    "MEASURED VALUE": "++++ (≥75% = ++++)"
  },
  {
    "SUBSTANCE": "25 (GLSETILAV; listed as Homo sapiens) [compound 25]",
    "MEASURED VALUE": "++++ (≥75% = ++++)"
  },
  {
    "SUBSTANCE": "18 (ALGEISVSV; listed as Homo sapiens) [compound 18]",
    "MEASURED VALUE": "+++ (≥50 = +++)"
  },
  {
    "SUBSTANCE": "36 (RMDGAVTSV; listed as Homo sapiens) [compound 36]",
    "MEASURED VALUE": "+++ (≥50 = +++)"
  },
  {
    "SUBSTANCE": "109 (SLFERLVVL; listed as Homo sapiens) [compound 109]",
    "MEASURED VALUE": "++++ (≥75% = ++++)"
  },
  {
    "SUBSTANCE": "114 (ALLEPGGVLTI; listed as Homo sapiens) [compound 114]",
    "MEASURED VALUE": "+++ (≥50 = +++)"
  },
  {
    "SUBSTANCE": "78 (RIIDPEDLKALL; listed as Homo sapiens) [compound 78]",
    "MEASURED VALUE": "++++ (≥75% = ++++)"
  }
]

* * *

- EXPERIMENTAL SYSTEM: HLA-A*02:01 (Homo sapiens, UniProt P04439, D140Y/D185E/D98H/E176V/E277Q/G131W/G231S/I119V/I121R/I166T/I218V/L300P/L318F/N151K/N90K/P208A/P217A/Q86G/Q94H/R138H/R169H/T345S)
- ASSAY REMARKS: MHC binding assay: UV-ligand exchange with ELISA detection of β2m of stabilized MHC complexes
- RUN CONDITIONS: binding to HLA-A*02:01
ENDPOINT NAME: Peptide exchange (MHC class I binding score, peptide exchange yield)

[
  {
    "SUBSTANCE": "108 (ILLDDQFQPKL; listed as Homo sapiens) [compound 108]",
    "MEASURED VALUE": "++++ (≥75% = ++++)"
  },
  {
    "SUBSTANCE": "19 (VLLTTAVEV; listed as Homo sapiens) [compound 19]",
    "MEASURED VALUE": "+++ (≥50 = +++)"
  },
  {
    "SUBSTANCE": "48 (SLIGLDLSSV; listed as Homo sapiens) [compound 48]",
    "MEASURED VALUE": "+++ (≥50 = +++)"
  },
  {
    "SUBSTANCE": "64 (VLFHQLQEI; listed as Homo sapiens) [compound 64]",
    "MEASURED VALUE": "+++ (≥50 = +++)"
  },
  {
    "SUBSTANCE": "80 (ILMDPSPEYA; listed as Homo sapiens) [compound 80]",
    "MEASURED VALUE": "+++ (≥50 = +++)"
  },
  {
    "SUBSTANCE": "105 (SMYDKVLML; listed as Homo sapiens) [compound 105]",
    "MEASURED VALUE": "++++ (≥75% = ++++)"
  },
  {
    "SUBSTANCE": "89 (IQHDLIFSL; listed as Homo sapiens) [compound 89]",
    "MEASURED VALUE": "+++ (≥50 = +++)"
  },
  {
    "SUBSTANCE": "43 (YLWSEVFSM; listed as Homo sapiens) [compound 43]",
    "MEASURED VALUE": "+++ (≥50 = +++)"
  },
  {
    "SUBSTANCE": "125 (LLSEPSLLRTV; listed as Homo sapiens) [compound 125]",
    "MEASURED VALUE": "+++ (≥50 = +++)"
  },
  {
    "SUBSTANCE": "85 (FAYDGKDYLTL; listed as Homo sapiens) [compound 85]",
    "MEASURED VALUE": "+++ (≥50 = +++)"
  },
  {
    "SUBSTANCE": "60 (VVSGATETL; listed as Homo sapiens) [compound 60]",
    "MEASURED VALUE": "++++ (≥75% = ++++)"
  },
  {
    "SUBSTANCE": "41 (KAYQELLATV; listed as Homo sapiens) [compound 41]",
    "MEASURED VALUE": "+++ (≥50 = +++)"
  },
  {
    "SUBSTANCE": "92 (YLQDYTDRV; listed as Homo sapiens) [compound 92]",
    "MEASURED VALUE": "+++ (≥50 = +++)"
  },
  {
    "SUBSTANCE": "82 (ALSSVIKEL; listed as Homo sapiens) [compound 82]",
    "MEASURED VALUE": "+++ (≥50 = +++)"
  },
  {
    "SUBSTANCE": "4 (GLLDPGMLVNI; listed as Homo sapiens) [compound 4]",
    "MEASURED VALUE": "+++ (≥50 = +++)"
  },
  {
    "SUBSTANCE": "99 (QMLEAIKALEV; listed as Homo sapiens) [compound 99]",
    "MEASURED VALUE": "++++ (≥75% = ++++)"
  },
  {
    "SUBSTANCE": "50 (FLLSQIVAL; listed as Homo sapiens) [compound 50]",
    "MEASURED VALUE": "+++ (≥50 = +++)"
  },
  {
    "SUBSTANCE": "21 (TMEEMIFEV; listed as Homo sapiens) [compound 21]",
    "MEASURED VALUE": "+++ (≥50 = +++)"
  },
  {
    "SUBSTANCE": "22 (LLPEKSWEI; listed as Homo sapiens) [compound 22]",
    "MEASURED VALUE": "+++ (≥50 = +++)"
  },
  {
    "SUBSTANCE": "32 (ALTSLELEL; listed as Homo sapiens) [compound 32]",
    "MEASURED VALUE": "+++ (≥50 = +++)"
  }
]

* * *

- Tested on: CD8+ T cells
- ASSAY REMARKS: In vitro T-cell priming assay with aAPCs loaded with peptide/MHC complexes and anti-CD28 antibody, pMHC multimer readout
- Type: cell-based, human
- RUN CONDITIONS: HLA-A*02 restricted peptides, CD8+ T cells of healthy donors, Table 10B
- Text: In order to obtain information regarding the immunogenicity of the TUMAPs of the present invention, the inventors performed investigations using an in vitro T-cell priming assay based on repeated stimulations of CD8+ T cells with artificial antigen presenting cells (aAPCs) loaded with peptide/MHC complexes and anti-CD28 antibody. […]
ENDPOINT NAME: Wells positive [%]

[
  {
    "SUBSTANCE": "82 (ALSSVIKEL; listed as Homo sapiens) [compound 82]",
    "ENDPOINT NAME": "Wells positive [%]",
    "MEASURED VALUE": "+ (<20% = +)"
  },
  {
    "SUBSTANCE": "6 (SIMDYVVFV; listed as Homo sapiens) [compound 6]",
    "ENDPOINT NAME": "Wells positive [%]",
    "MEASURED VALUE": "+ (<20% = +)"
  },
  {
    "SUBSTANCE": "39 (GLDPTQFRV; listed as Homo sapiens) [compound 39]",
    "ENDPOINT NAME": "Wells positive [%]",
    "MEASURED VALUE": "++++ (≥70 = ++++)"
  },
  {
    "SUBSTANCE": "80 (ILMDPSPEYA; listed as Homo sapiens) [compound 80]",
    "ENDPOINT NAME": "Wells positive [%]",
    "MEASURED VALUE": "+++ (50%-69% = +++)"
  },
  {
    "SUBSTANCE": "2 (VMFNFPDQATV; listed as Homo sapiens) [compound 2]",
    "ENDPOINT NAME": "Wells positive [%]",
    "MEASURED VALUE": "+ (<20% = +)"
  },
  {
    "SUBSTANCE": "110 (GLTETGLYRI; listed as Homo sapiens) [compound 110]",
    "ENDPOINT NAME": "Wells positive [%]",
    "MEASURED VALUE": "+++ (50%-69% = +++)"
  },
  {
    "SUBSTANCE": "11 (KLFAIPILL; listed as Homo sapiens) [compound 11]",
    "ENDPOINT NAME": "Wells positive [%]",
    "MEASURED VALUE": "++++ (≥70 = ++++)"
  }
]
